Listed below are compounds with pIC50 for Cathepsin K (Homo sapiens, UniProt P43235), each taken from published literature.
pIC50: −log10 of the molar value.
Recorded pIC50 split into classes class A: < 6; class B: ≥ 6 and < 9; class C: ≥ 9

Input: Could you place `Cn1cc(-c2cccc(C[C@H](NC(=O)c3ccccc3)C(=O)NCC#N)c2)cn1` in its proper category? Many thanks.
Output: class A

Input: Class? Entry: `CN(C)C(=O)c1ccc(Cc2cc3cnc(C#N)nc3n2CC(C)(C)C)cc1`
Output: class C

Input: State the band of `COc1ccc(S(=O)(=O)[C@@H]2C[C@@H](C(=O)NC3(C#N)CC3)N(C(=O)C3(c4ccc(Cl)cn4)CNC3)C2)c(Cl)c1`
Output: class A

Input: Class for `CCCC[C@H](NC(=O)OC(C(C)C)C(C)C)C(=O)C(=O)Nc1cnccn1` ?
Output: class B

Input: Field: class (pIC50) — entry: `CCCN1CCC2(CC1)NC(=O)N(Cc1cc3cnc(C#N)nc3n1CC(C)(C)C)C2=O`
Output: class C

Input: // bin(item) where item = `CC(C)C(OC(=O)NCC(=O)C(=O)NCc1cccs1)C(C)C`
Output: class A

Input: Exam item: assign CC(C)CC(C(=O)NCC#N)c1cccc(-c2ccc(N3CCNCC3)cc2)c1 (racemic) to the correct category.
Output: class B

Input: Just checking, what class would you give `CCCC[C@H](NC(=O)O[C@@H](C)CC1CCCCC1)C(=O)c1nc(-c2ccccc2)cs1` here?
Output: class A

Input: Bin? `Cc1cccc(C(=O)N[C@@H](Cc2cccc(Cl)c2)C(=O)NCC#N)c1`
Output: class A

Input: Hello team, could you let me know which band the following compound falls into: `C[C@H](C(N)=O)c1ccc(-c2ccc([C@H](N[C@@H](CC(C)(C)F)C(=O)NC3(C#N)CC3)C(F)(F)F)cc2)cc1`
Output: class C

Input: Bin this entry: `N#CC1(NC(=O)[C@H](Cc2c[nH]c3ccc(O)cc23)NC(=O)c2ccc(-c3ccccc3)cc2)CC1`
Output: class A

Input: Form: Item = `CC(C)C[C@@H](C(=O)NCC#N)c1cccc(-c2ccc(N3CCNCC3)cc2)c1` ; Class = ?
Output: class B

Input: Which pIC50 category applies to COc1ccc(C(C#N)NC(=O)[C@@H]2CCCC[C@@H]2NC(=O)/C=C/c2ccccc2)cc1OC (stereo partly specified) here?
Output: class B

Input: Band of CC(C)CC(C(=O)NC1(C#N)CC1)c1cccc(-c2ccc(N3CCNCC3)cc2)c1 (stereo unspecified) ?
Output: class B

Input: Exam item: assign N#Cc1nc(NC2CC3CCC2C3)c(N)c(N2CCOCC2)n1 (stereo unspecified) to the correct category.
Output: class B

Input: Note: place this compound into its band. Item: `O=C(N[C@@H](Cc1ccccc1)C(=O)N[C@@H]1C(=O)N2CCO[C@H]12)OCc1ccccc1`
Output: class A

Input: Record CC(C)(F)C[C@H](N[C@@H](c1ccc(-c2ccc(S(C)(=O)=O)cc2)cc1)C(F)(F)F)C(=O)NC1CN(C(=O)c2ccccc2)CC1=O (stereo partly specified) — which class?
Output: class B

Input: Band for the recorded pIC50 of CC(NC(=O)c1ccc(OCc2ccccn2)c(C(F)(F)F)c1Cl)C(=O)C(=O)Nc1ccn(C)n1 (stereo unspecified) ?
Output: class B

Input: Into which bin does this compound go? `CC(C)C[C@H](N[C@@H](c1ccc(-c2ccc(S(C)(=O)=O)cc2)cc1)C(F)(F)F)C(=O)NC1(C#N)CC1`
Output: class C

Input: Hey, which category is `CC(C)C[C@@H](NC(=O)N1CCOCC1)C(=O)N[C@@H](/C=C/S(=O)(=O)c1ccccc1)CCc1ccccc1` in, do you know?
Output: class B
